- MEASUREMENT TARGET: Hexose transporter 1 (Plasmodium falciparum) (UniProt O97467)
- MEASUREMENT PROTOCOL: ST_JUDE_LEISH: Cytotoxicity at 2uM final concentration against transgenic Leishmania Mexicana promastigotes LmPfHT that are glucose transport deficient and complemented with the Plasmodium falciparum hexose transporter. Activity is measured by DNA content using SYBR green in vitro
- Assay type: functional
# inhibition per entry
Report the value in % with no unit label.

[ask] Field request: inhibition | item: CCOc1cc(CC)ccc1C1CCN(CCN2CCC(NC(=O)c3ccc(-c4ccc(C#N)cc4)cc3)CC2)CC1
[reply] 0.77

* * *

# inhibition per entry
- MEASUREMENT TARGET: Solute carrier family 2, facilitated glucose transporter member 1 (Homo sapiens) (UniProt P11166)
- Sequence (P11166 whole entry): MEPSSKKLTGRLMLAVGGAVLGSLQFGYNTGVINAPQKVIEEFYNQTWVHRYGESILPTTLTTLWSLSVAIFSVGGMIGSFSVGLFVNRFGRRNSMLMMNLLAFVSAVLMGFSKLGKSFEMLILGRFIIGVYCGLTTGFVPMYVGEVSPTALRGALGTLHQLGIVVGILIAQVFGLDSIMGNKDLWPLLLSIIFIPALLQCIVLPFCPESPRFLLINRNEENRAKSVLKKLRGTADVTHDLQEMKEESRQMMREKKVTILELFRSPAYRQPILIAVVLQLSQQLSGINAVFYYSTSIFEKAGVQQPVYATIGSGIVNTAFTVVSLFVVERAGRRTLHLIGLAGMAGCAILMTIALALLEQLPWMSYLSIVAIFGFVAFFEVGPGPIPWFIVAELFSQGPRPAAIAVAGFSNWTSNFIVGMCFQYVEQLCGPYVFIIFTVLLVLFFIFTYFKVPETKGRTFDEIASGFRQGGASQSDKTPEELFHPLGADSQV
- MEASUREMENT PROTOCOL: ST_JUDE_LEISH: Cytotoxicity at 2uM final concentration against transgenic Leishmania Mexicana promastigotes LmGLUT1 that are glucose transport deficient and complemented with the human glucose transporter GLUT1. Activity is measured by DNA content using SYBR green in vitro
- Assay type: functional
Report the value in % with no unit label.

Known inhibition results, listed for orientation:
{"MOLECULE": "O=C(Nc1cccc(-c2csc(-c3nc4ccccc4[nH]3)c2)c1)c1cccnc1", "inhibition (%)": 1.57}
{"MOLECULE": "Cc1cc(NC(=O)c2ccc(-c3ccccc3)cc2)no1", "inhibition (%)": 4.35}
{"MOLECULE": "O=C(NCc1ccccc1)NC(CCCN1CCC(Oc2cccc(Cl)c2)CC1)c1ccc(Cl)c(Cl)c1 (centres undefined)", "inhibition (%)": 2.71}
{"MOLECULE": "CCC(=O)c1ccc(-c2ccc(=O)n(CC(=O)N(CCN(CC)CC)Cc3ccc(-c4ccc(C(F)(F)F)cc4)cc3)n2)cc1", "inhibition (%)": 0.37}
{"MOLECULE": "O=C(NC1CCN(Cc2ccccc2)CC1)c1cc(-c2ccncc2)c(-c2ccc(Cl)c(O)c2)o1", "inhibition (%)": 2.8}

[ask] Field request: inhibition | item: COc1ccc(-c2cccc(NC(=O)c3ccc(Cl)cc3)c2)cc1CN1CCNCC1
[reply] 2.69
